Would you mind telling me the reported IC50 of each entry?
# ASSAYED SYSTEM: 15-PGDH/HPGD (Homo sapiens, UniProt P15428)
# Sequence (P15428 whole entry): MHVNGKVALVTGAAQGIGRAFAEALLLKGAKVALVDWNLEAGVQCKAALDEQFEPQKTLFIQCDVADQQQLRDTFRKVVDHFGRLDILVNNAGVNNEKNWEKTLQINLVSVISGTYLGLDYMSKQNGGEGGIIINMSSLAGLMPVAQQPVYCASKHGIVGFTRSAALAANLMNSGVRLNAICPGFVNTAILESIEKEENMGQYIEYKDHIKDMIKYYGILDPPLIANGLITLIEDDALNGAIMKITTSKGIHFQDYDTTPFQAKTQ
# ASSAY EXPLANATION: hPGDH inhibitor screening biochemical assay
# EXPERIMENTAL SETUP: 10 nM enzyme, fluorescence ex/em 340/485 nm

# count of solved cases: 2
O=C(O)c1ccc(-n2ccc3cc([S+]([O-])C4CCC4)cnc32)cc1 (single isomer, unassigned) [Compound 49B] | < 0.1 µM
[O-][S+](c1cnc2c(cnn2-c2cccc(-c3nnc[nH]3)c2)c1)C1CCCC1 (stereo not drawn) [Compound 26A] | < 0.1 µM

Now look at this one.
GET /values?readout=IC50&item= Cc1cc(-c2cccc(-n3ncc4cc([S+]([O-])C5CCC(F)(F)C5)cnc43)c2)ccn1 (stereo not drawn) [Compound 11D]
< 0.1 µM

###

# Tested on: A549
# ASSAY EXPLANATION: A549 EC50 (cell assay, no method described)
# Type: cell-based
# EXPERIMENTAL SETUP: A549
pEC50: −log10 of the molar value.
Would you mind telling me the reported pEC50 of each entry?

COC(C)(C)CC[S+]([O-])c1cnc2c(cnn2-c2cccc(-c3nnc[nH]3)c2)c1 (single isomer, unassigned) [Compound 104A] | 6.00 to 7.00
CC(C)CC[S+]([O-])c1cnc2c(ccn2-c2cncc(-c3nnc[nH]3)c2)c1 (single isomer, unassigned) [Compound 53A] | 6.00 to 7.00
CNC(=O)c1ccc(-n2ncc3cc([S+]([O-])C4CC(F)(F)C4)cnc32)cc1 (stereo not shown) [Compound 118A] | > 7.00
COCC1CC([S+]([O-])c2cnc3c(cnn3-c3cccc(-c4nnc[nH]4)c3)c2)C1 (stereo not shown) [Compound 109D] | ≤ 6.00
[O-][S+](c1cnc2c(cnn2-c2cccc(-c3nnc[nH]3)c2)c1)C1C[C@@H]2C[C@@H]2C1 (single isomer, unassigned) [Compound 123A] | ≤ 6.00

For the 2 compounds below, give their pEC50 values.
1. COCC1CC([S+]([O-])c2cnc3c(cnn3-c3cccc(-c4nnc[nH]4)c3)c2)C1 (stereo not shown) [Compound 109B]
2. CCCC[S+]([O-])c1cnc2c(cnn2-c2ccc(C(=O)O)cc2)c1 (stereo not shown) [Compound 24B]

["≤ 6.00", "6.00 to 7.00"]

###

# System: A549
# ASSAY EXPLANATION: A549 EC50 (cell assay, no method described)
# Type: cell-based
# EXPERIMENTAL SETUP: A549
pEC50: −log10 of the molar value.
REPORTED ENDPOINT: pEC50

# count of solved cases: 3
COCCC[S+]([O-])c1cnc2c(cnn2-c2cncc(-c3nnc[nH]3)c2)c1 (stereo not shown) [Compound 102B] | ≤ 6.00
CNC(=O)c1ccc(-n2ncc3cc([S+]([O-])CCC(C)C)cnc32)cc1 (stereo not shown) [Compound 124A] | ≤ 6.00
[O-][S+](c1cnc2c(ccn2-c2cccc(-c3nnc[nH]3)c2)n1)C1CC(F)(F)C1 (stereo not shown) [Compound 110A] | > 7.00

Now look at this one.
GET /values?readout=pEC50&item= [O-][S+](c1cnc2c(ccn2-c2cccc(-c3nnc[nH]3)c2)n1)C1CC(F)(F)C1 (stereo not shown) [Compound 110B]
≤ 6.00

###

# ASSAYED SYSTEM: 15-PGDH/HPGD (Homo sapiens, UniProt P15428)
# ASSAY EXPLANATION: hPGDH inhibitor screening biochemical assay
# EXPERIMENTAL SETUP: 10 nM enzyme, fluorescence ex/em 340/485 nm
pIC50: −log10 of the molar value.
Would you mind telling me the reported pIC50 of each entry?

# count of solved cases: 5
[O-][S+](c1cnc2c(ccn2-c2ccc(-c3nnc[nH]3)cc2)c1)C1CC1 (stereo not drawn) [Compound 68] | > 7.00
O=S(=O)(c1cnc2c(ccn2-c2ccc(-c3nnc[nH]3)cc2)c1)C1CCCC1 [Compound 62] | > 7.00
CC(C)(O)CC[S+]([O-])c1cnc2c(cnn2-c2cccc(-c3nnc[nH]3)c2)c1 (single isomer, unassigned) [Compound 108B] | > 7.00
[O-][S+](c1cnc2c(ccn2-c2cccc(-c3nnc[nH]3)c2)n1)C1CC(F)(F)C1 (stereo not drawn) [Compound 110A] | > 7.00
[O-][S+](c1cnc2c(cnn2-c2cccc(-c3ccc(N4CCOCC4)nc3)c2)c1)C1CCC1 (stereo not drawn) [Compound 95A] | > 7.00

For the 5 compounds below, give their pIC50 values.
1. CCCC[S+]([O-])c1cnc2c(cnn2-c2cccc(-c3nnc(C)[nH]3)c2)c1 (stereo not drawn) [Compound 17B]
2. COCCC[S+]([O-])c1cnc2c(cnn2-c2ccc(N3CCN(C)C3=O)nc2)c1 (single isomer, unassigned) [Compound 114B]
3. CCCC[S+]([O-])c1cnc2c(cnn2-c2ccc(-c3nnc[nH]3)cc2)c1 (stereo not drawn) [Compound 44]
4. O=S(=O)(c1cnc2c(cnn2-c2cc(F)cc(-c3nnc[nH]3)c2)c1)C1CCCC1 [Compound 32]
5. CNC(=O)c1ccc(-n2ncc3cc([S+]([O-])CCC(C)C)cnc32)cc1 (stereo not drawn) [Compound 124A]

["> 7.00", "≤ 6.00", "> 7.00", "> 7.00", "6.00 to 7.00"]

For the 7 compounds below, give their pIC50 values.
1. CCCC[S+]([O-])c1cnc2c(cnn2-c2cccc(-c3nnc(C)[nH]3)c2)c1 (stereo not drawn) [Compound 17A]
2. CNC(=O)c1ccc(-n2ncc3cc([S+]([O-])C4CC(F)(F)C4)cnc32)cc1 (stereo not drawn) [Compound 118A]
3. O=S(=O)(c1cnc2c(cnn2-c2cccc(-c3nnc[nH]3)c2)c1)C1CCCC1 [Compound 34]
4. [O-][S+](c1cnc2c(cnn2-c2cccc(-c3nnc[nH]3)c2)c1)C1CCC1 (single isomer, unassigned) [Compound 18B]
5. [O-][S+](c1cnc2c(cnn2-c2cncc(-c3nnc[nH]3)c2)c1)C1CCC1 (stereo not drawn) [Compound 99B]
6. [O-][S+](c1cnc2c(cnn2-c2cccc(-c3nnc[nH]3)c2)c1)C1CC(F)(F)C1 (single isomer, unassigned) [Compound 7A]
7. CCOC(=O)Nc1cncc(-n2ccc3cc([S+]([O-])C4CC4)cnc32)c1 (stereo not drawn) [Compound 67]

1: 6.00 to 7.00; 2: > 7.00; 3: > 7.00; 4: > 7.00; 5: 6.00 to 7.00; 6: 6.00 to 7.00; 7: > 7.00

For the 4 compounds below, give their pIC50 values.
1. O=c1ccc(-c2cccc(-n3ncc4cc([S+]([O-])C5CCC5)cnc43)c2)c[nH]1 (stereo not drawn) [Compound 96A]
2. CCCC[S+]([O-])c1cnc2c(cnn2-c2ccc(C(=O)O)cc2)c1 (stereo not drawn) [Compound 24A]
3. [O-][S+](c1cnc2c(ccn2-c2cccc(-c3nnc[nH]3)c2)c1)C1CCCC1 (single isomer, unassigned) [Compound 59A]
4. [O-][S+](CC1CC1)c1cnc2c(cnn2-c2ccc(-c3nnc[nH]3)cc2)c1 (stereo not drawn) [Compound 46]

> 7.00
6.00 to 7.00
> 7.00
> 7.00

###

# ASSAYED SYSTEM: 15-PGDH/HPGD (Homo sapiens)
# ASSAY EXPLANATION: hPGDH inhibitor screening biochemical assay
# EXPERIMENTAL SETUP: 10 nM enzyme, fluorescence ex/em 340/485 nm
pIC50: −log10 of the molar value.
Would you mind telling me the reported pIC50 of each entry?

# count of solved cases: 2
CCOC(=O)Nc1cncc(-n2ncc3cc(C(=O)CC4CC4)cnc32)c1 | > 7.00
[O-][S+](c1cnc2c(ccn2-c2cccc(-c3nnc[nH]3)c2)n1)C1CC(F)(F)C1 (centres unmarked) [Compound 110B] | > 7.00

For the 4 molecules below, give their pIC50 values.
1. CC1CC([S+]([O-])c2cnc3c(cnn3-c3cccc(-c4nnc[nH]4)c3)c2)C1 (centres unmarked) [Compound 120B]
2. COC1CC([S+]([O-])c2cnc3c(cnn3-c3cccc(-c4nnc[nH]4)c3)c2)C1 (single isomer, unassigned) [Compound 105C]
3. [O-][S+](c1cnc2c(cnn2-c2cccc(-c3nnc[nH]3)c2)c1)C1C[C@@H]2C[C@@H]2C1 (single isomer, unassigned) [Compound 123D]
4. CCCC[S@+]([O-])c1cnc2c(cnn2-c2cccc(-c3nnc[nH]3)c2)c1 (single isomer, unassigned) [Compound 36A]

1: > 7.00; 2: > 7.00; 3: > 7.00; 4: 6.00 to 7.00

For the 4 molecules below, give their pIC50 values.
1. [O-][S+](c1cnc2c(ccn2-c2ccc3nc(N4CCOCC4)nn3c2)c1)C1CC1 (centres unmarked)
2. O=C(O)c1ccc(-n2ccc3cc([S+]([O-])C4CCC4)cnc32)cc1 (single isomer, unassigned) [Compound 49A]
3. CNC(=O)c1ccc(-c2cncc(-n3ncc4cc([S+]([O-])C5CCCC5)cnc43)c2)cc1 (centres unmarked)
4. [O-][S+](CCCC(F)(F)F)c1cnc2c(cnn2-c2cccc(-c3nnc[nH]3)c2)c1 (centres unmarked) [Compound 22B]

1. > 7.00
2. > 7.00
3. > 7.00
4. > 7.00

For the 4 molecules below, give their pIC50 values.
1. [O-][S+](c1cnc2c(cnn2-c2cccc(-c3nnc[nH]3)c2)c1)C1CCCC1 (single isomer, unassigned) [Compound 26B]
2. COCCC[S+]([O-])c1cnc2c(cnn2-c2ccc3nc(N4CCOCC4)nn3c2)c1 (single isomer, unassigned) [Compound 119B]
3. COC1CC([S+]([O-])c2cnc3c(cnn3-c3cccc(-c4nnc[nH]4)c3)c2)C1 (single isomer, unassigned) [Compound 105B]
4. CCCC[S+]([O-])c1cnc2c(ccn2-c2ccc3nc(N4CCOCC4)nn3c2)c1 (centres unmarked)

1. 6.00 to 7.00
2. ≤ 6.00
3. ≤ 6.00
4. > 7.00
